Sourced from ChEMBL document CHEMBL1828575

Listed molecules paired with reported inhibition of growth at 10 µM
system: PC-3; assay: Cytotoxicity against human PC3 cells at 10^-5 M after 72 hrs by MTS assay; assay type: functional; conditions: PC-3, 72 h, read-out: GI
Reply numerically in %, unit not repeated.

Some solved entries appear below for comparison.
[[record]]
substance_smiles = "COc1ccc(/C(=C2\\O[C@@H]([C@H](O)CO)[C@H]3OC(C)(C)O[C@@H]23)c2cc(OC)c(OC)c(OC)c2)cc1O"
system_tested = "PC-3"
assay_value = 77

[[record]]
substance_smiles = "COc1cc(C(=C(COC(C)=O)COC(C)=O)c2ccc3c(c2)OCO3)cc(OC)c1OC"
system_tested = "PC-3"
assay_value = 13

[[record]]
substance_smiles = "COc1cc(C(=C(COC(C)=O)COC(C)=O)c2ccc3ccccc3c2)cc(OC)c1OC"
system_tested = "PC-3"
assay_value = 62

[[record]]
substance_smiles = "COc1cc(/C(=C2/O[C@@H]([C@H](O)CO)[C@H]3OC(C)(C)O[C@@H]23)c2cccc([N+](=O)[O-])c2)cc(OC)c1OC"
system_tested = "PC-3"
assay_value = 23

[[record]]
substance_smiles = "COc1cc(C(=C(CO)CO)c2ccc3ccccc3c2)cc(OC)c1OC"
system_tested = "PC-3"
assay_value = 75


Please look up its inhibition of growth at 10 µM: COc1ccc(C(=C(COC(C)=O)COC(C)=O)c2cc(OC)c(OC)c(OC)c2)cc1O
78

Next: COc1cc(C(=C(COC(C)=O)COC(C)=O)c2cc(OC)c(OC)c(OC)c2)cc(OC)c1OC
44

Next: COc1cc(C(=C(CO)CO)c2cc(OC)c(OC)c(OC)c2)cc(OC)c1OC
26

Next: COc1cc(/C(=C2\O[C@@H]([C@H]3COC(C)(C)O3)[C@H]3OC(C)(C)O[C@@H]23)c2cccc([N+](=O)[O-])c2)cc(OC)c1OC
0

Next: COc1ccc(/C(=C2/O[C@@H]([C@H]3COC(C)(C)O3)[C@H]3OC(C)(C)O[C@@H]23)c2cc(OC)c(OC)c(OC)c2)cc1O
71
